Recorded values, source paper PMC5967867.

target: GluN1/GluN2C NMDARs (Rattus norvegicus, UniProt P35439+Q00961); assay: Two-electrode voltage-clamp recordings, Xenopus laevis oocytes expressing GluN1/GluN2C; format: cell-based; conditions: glutamate/glycine 100/30 µM; no second modulator (+EU1794-27 0 µM); read-out: IC50 (µM) [conf. int.]
Sequence (Q00961 20-1237, other chains not shown): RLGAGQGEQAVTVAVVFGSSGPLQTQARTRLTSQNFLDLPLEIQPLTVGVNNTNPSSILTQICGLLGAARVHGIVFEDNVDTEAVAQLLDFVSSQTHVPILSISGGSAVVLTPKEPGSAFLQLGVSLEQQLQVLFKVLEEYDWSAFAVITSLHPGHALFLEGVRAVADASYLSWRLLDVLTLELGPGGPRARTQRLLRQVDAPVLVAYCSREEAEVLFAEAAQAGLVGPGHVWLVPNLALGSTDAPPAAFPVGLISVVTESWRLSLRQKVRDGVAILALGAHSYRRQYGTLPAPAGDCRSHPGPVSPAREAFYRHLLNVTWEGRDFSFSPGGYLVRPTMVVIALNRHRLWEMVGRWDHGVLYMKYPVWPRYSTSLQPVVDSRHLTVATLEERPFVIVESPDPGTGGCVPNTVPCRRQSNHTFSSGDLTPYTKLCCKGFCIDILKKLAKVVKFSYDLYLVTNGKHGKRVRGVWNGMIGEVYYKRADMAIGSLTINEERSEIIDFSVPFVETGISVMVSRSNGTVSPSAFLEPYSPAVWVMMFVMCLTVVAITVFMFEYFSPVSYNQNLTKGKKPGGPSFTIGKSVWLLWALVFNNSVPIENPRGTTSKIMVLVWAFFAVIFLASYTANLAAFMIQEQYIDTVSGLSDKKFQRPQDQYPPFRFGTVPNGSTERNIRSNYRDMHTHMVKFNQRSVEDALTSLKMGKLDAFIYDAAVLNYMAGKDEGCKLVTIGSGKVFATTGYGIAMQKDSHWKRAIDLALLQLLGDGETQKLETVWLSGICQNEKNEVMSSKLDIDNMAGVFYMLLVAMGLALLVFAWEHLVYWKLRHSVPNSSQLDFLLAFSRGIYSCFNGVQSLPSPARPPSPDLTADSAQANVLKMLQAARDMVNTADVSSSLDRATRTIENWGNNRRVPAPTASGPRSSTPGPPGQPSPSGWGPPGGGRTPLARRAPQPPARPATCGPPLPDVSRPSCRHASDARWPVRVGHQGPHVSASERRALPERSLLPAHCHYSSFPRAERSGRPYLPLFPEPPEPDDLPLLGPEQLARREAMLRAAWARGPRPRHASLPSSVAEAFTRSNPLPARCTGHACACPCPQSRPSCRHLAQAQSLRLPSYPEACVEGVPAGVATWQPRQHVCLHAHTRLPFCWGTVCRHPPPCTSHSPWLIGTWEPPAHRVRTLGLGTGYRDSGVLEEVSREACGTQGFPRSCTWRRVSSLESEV
READOUT_NAME: IC50 (µM)

1 = CCOC(=O)c1c(NC(=O)CC2SC(=N)NC2=O)sc2c1CCC(C)C2 (centres unmarked) [EU1794-2]
2 = CCOC(=O)c1c(NC(=O)CC2SC(=N)NC2=O)sc2c1CCCC2 (centres unmarked) [EU1794-4]
Ask | Lower IC50: 1 or 2 ? Write down the label attached to your selection.
Reply | 1
